Values from PubChem BioAssay (NCI)

Entries and their TGI
- Tested on: NCI-H23 lung
- measurement.protocol: NCI tumour cell line growth inhibition, 48 h
readout: TGI

molecule=COc1ccc(N=c2oc3ccccc3cc2C(N)=O)cc1 readout=TGI recorded_measurement="> 100 µM"
molecule="CC(=O)c1nc2ccccc2n1C(C)C(=O)c1ccccc1 (centres undefined)" readout=TGI recorded_measurement="> 100 µM"
molecule=C[n+]1cccc(NC(=O)c2ccc(NC(=O)C34CCC(C(=O)Nc5ccc(C(=O)Nc6ccc[n+](C)c6)cc5)(CC3)CC4)cc2)c1 readout=TGI recorded_measurement="> 100 µM"
molecule="CCOC(OC(C)=O)[C@@H]1C=C[C@H](C)N(c2ccc([N+](=O)[O-])cc2)O1 (some centres undefined)" readout=TGI recorded_measurement="16.2 µM"

* * *

- Test system: NCI-H226 lung
- measurement.protocol: NCI tumour cell line growth inhibition, 48 h
TGI values for the molecules below.
readout: TGI

molecule=CCC[C@H]1O[C@@H]2CC(=O)O[C@@H]2C2=C1C(=O)C=CC2=O readout=TGI recorded_measurement="18.4 µM"
molecule=CC1=NN(c2nc(N)nc(CN3CCOCC3)n2)C(C)(C)C1 readout=TGI recorded_measurement="> 100 µM"
molecule=Nc1nc(/C=C\c2ccc([N+](=O)[O-])s2)nc(N2CCN(c3ccccc3)CC2)n1 readout=TGI recorded_measurement="36.4 µM"
molecule=COc1cc(/C=C2\C(=O)N(C(=O)Cc3ccccc3)N=C2C)cc(OC)c1OC readout=TGI recorded_measurement="> 100 µM"
molecule=N#C/C(=C\c1ccc(F)cc1)c1nc(-c2cc3ccccc3oc2=O)cs1 readout=TGI recorded_measurement="> 100 µM"
molecule=O=C(C(=O)c1cc2ccccc2[nH]1)c1cc2ccccc2[nH]1 readout=TGI recorded_measurement="> 347 µM"
molecule=COc1cc2cc(OC(C)=O)c3cc4c(cc3c2c(OC)c1OC)OCO4 readout=TGI recorded_measurement="> 100 µM"
molecule=O=c1c2c(nc3n1CCS3)[nH]c1cc([N+](=O)[O-])ccc12 readout=TGI recorded_measurement="> 100 µM"
molecule="COc1ccc(S(=O)(=O)N2C(=O)CCC2C(=O)NC(N)=O)cc1 (stereo not given)" readout=TGI recorded_measurement="> 100 µM"
molecule=CNC(=O)c1ccc(N2C(=S)N(c3cnc(C#N)c(C(F)(F)F)c3)C(=O)C23CCC3)cc1F readout=TGI recorded_measurement="> 100 µM"

* * *

- Test system: HT29 colon
- measurement.protocol: NCI tumour cell line growth inhibition, 48 h
# TGI per record follows
readout: TGI

compound="CCOC(=O)Cc1csc(NC(NC(=O)OCC)(C(=O)OCC)C(F)(F)F)n1 (stereo not given)" recorded_measurement="> 100 µM"
compound=Cc1cc(S(=O)(=O)Nc2n[nH]c(-c3ccc(Cl)cc3)n2)c(SSc2cc(Cl)c(C)cc2S(=O)(=O)Nc2n[nH]c(-c3ccc(Cl)cc3)n2)cc1Cl recorded_measurement="57.2 µM"
compound=COc1ccccc1Nc1nc2c([nH]1)c(=O)n(C)c(=O)n2C recorded_measurement="> 10 µM"
compound=O=C(CCC(=O)Nc1ccc(Cl)c(Cl)c1)Cc1nc2ccccc2o1 recorded_measurement="> 100 µM"
compound=Cc1onc(-c2ccccc2)c1C(=O)N/N=C/c1cc(Cl)cc(Cl)c1O recorded_measurement="58.7 µM"

* * *

- System: SW-620 colon
- measurement.protocol: NCI tumour cell line growth inhibition, 48 h
Documented TGI across a set of molecules
readout: TGI

molecule=O=C(Nc1ccc(C(F)(F)F)cc1)NC(F)(F)F readout=TGI recorded_measurement="> 100 µM"
molecule="CC(=O)O[C@@H]1C2CCC3C(CC[C@@]4(C)C3CC[C@@H]4C(C)N(C)C)[C@@]2(C)CC[C@@H]1NC(=O)C=C(C)C (stereo partly drawn)" readout=TGI recorded_measurement="3.48 µM"
molecule=CC(=O)Nc1ccc(/C=C/C(=O)c2sc(-c3cccnc3)nc2C)cc1 readout=TGI recorded_measurement="> 100 µM"
molecule="Cc1ccc([N+](=O)[O-])cc1S(=O)(=O)Nc1ccc(C2=NN(S(=O)(=O)c3cc([N+](=O)[O-])ccc3C)C(c3ccccc3)C2)cc1 (stereo not drawn)" readout=TGI recorded_measurement="> 100 µM"
molecule="C/C=C(\\C)c1cc(=O)c2c(C)cc3c(c2o1)C(=O)c1c(O)c(C2CC(C)(N(C)C)C(OC(C)=O)C(C)O2)cc(C2CC(N(C)C)C(O)C(C)O2)c1C3=O (stereo not drawn)" readout=TGI recorded_measurement="> 27.7 µM"
molecule=O=c1c2ccccc2sc2c(NCCCNCCO)nc3ccccc3c12 readout=TGI recorded_measurement="2.74 µM"
molecule="COc1cc2c(cc1OC(C)C)[C@H](c1ccc(Cl)cc1)N(c1ccc(N(C)CC3CCC(N4CCN(C)C(=O)C4)CC3)cc1)C(=O)C2 (stereo partly drawn)" readout=TGI recorded_measurement="10 µM"
molecule="CC1=C(C#N)C(=C(C#N)C#N)OC1(C)Cc1ccccc1 (stereo not drawn)" readout=TGI recorded_measurement="> 100 µM"

* * *

Listed here: items and their measured TGI.
- Tested on: TK-10 renal
- measurement.protocol: NCI tumour cell line growth inhibition, 48 h
readout: TGI (µM)

compound=O=c1nc2n3c4c(cccc4nc-2c(=O)[nH]1)CCC3 readout=TGI inequality_operator=> recorded_measurement=100
compound="CCCCN1C(=O)C2Cc3c([nH]c4ccccc34)C(c3cccc(O)c3)N2C1=O (centres undefined)" readout=TGI inequality_operator== recorded_measurement=33.6
compound=CNC(=O)c1c(C)oc2cc(Oc3ncnc4cc(OC)c(OC)cc34)ccc12 readout=TGI inequality_operator=> recorded_measurement=100
compound=O=c1oc2ccc(I)cc2c(=O)n1-c1ccc(Br)cc1F readout=TGI inequality_operator== recorded_measurement=10.2
compound="CC(=O)c1nc2ccccc2n1C(C)C(=O)c1ccccc1 (centres undefined)" readout=TGI inequality_operator=> recorded_measurement=100
compound=CCCCc1ccc(N=C(N)N)cc1 readout=TGI inequality_operator== recorded_measurement=63.9
compound=C=CN(C(=O)N1CCN(c2cc3c(cc2F)c(=O)c(C(=O)O)cn3C2CC2)CC1)c1nc(-c2ccc(OC)cc2)cs1 readout=TGI inequality_operator== recorded_measurement=23.7
compound="CC(=O)Nc1ccc2c3c(cc(O)c2c1)N(C(=O)CCCC(=O)N1CC(CCl)c2c1cc(O)c1cc(NC(C)=O)ccc21)CC3CCl (centres undefined)" readout=TGI inequality_operator== recorded_measurement=0.057
compound="NC1N=C(c2ccc(Cl)cc2)C2=C(N1)c1ccccc1CC2 (centres undefined)" readout=TGI inequality_operator=> recorded_measurement=100
compound=C=C(c1ccc(OC)c(/C=C/C(=O)c2ccc3c(c2)OCO3)c1)c1cc(OC)c(OC)c(OC)c1 readout=TGI inequality_operator=> recorded_measurement=100
compound=COc1cc(/C=C2\C(=O)N(C(=O)Cc3ccccc3)N=C2C)cc(OC)c1OC readout=TGI inequality_operator=> recorded_measurement=100
compound="NC(=O)C1CCCN1C(=O)C(Cc1cnc[nH]1)NC(=O)C1CCCC1 (centres undefined)" readout=TGI inequality_operator=> recorded_measurement=100
compound=COc1ccccc1/C=C/c1ccnc2ccccc12 readout=TGI inequality_operator== recorded_measurement=30.9
compound="CC1(C)OC2C(CCP(=O)(O)O)OC(c3nc(C(N)=O)cs3)C2O1 (centres undefined)" readout=TGI inequality_operator=> recorded_measurement=100
compound=COc1ccc(Cc2c3cc(O)c(=O)cc-3ccn2C)cc1 readout=TGI inequality_operator=> recorded_measurement=100
compound=C=CC(=O)Nc1ccc(NC(=O)C=C)c2c1C(=O)c1ccccc1C2=O readout=TGI inequality_operator== recorded_measurement=62.5
compound=Oc1c(Br)cc(/C=C/c2ccnc(/C=C/c3cc(Br)c(O)c(Br)c3)c2)cc1Br readout=TGI inequality_operator== recorded_measurement=75
compound=O=C(CN(/C=C/C(=O)C(F)(F)F)c1ccc(Cl)cc1)c1ccc(Cl)cc1 readout=TGI inequality_operator== recorded_measurement=19.3
compound=Cc1nc([N+](=O)[O-])cn1-c1nc2ccccn2c1[N+](=O)[O-] readout=TGI inequality_operator=> recorded_measurement=100
compound="Cc1ccc(C)c(N2C(=O)C(=O)C(c3nc4ccccc4s3)/C(=N/N)C2=O)c1 (centres undefined)" readout=TGI inequality_operator=> recorded_measurement=100
compound="COc1ccc(C(c2ccccc2)(c2ccc(OC)cc2)N2C(=O)NC3C(CCCCC(=O)NCCCCCCOP(OCCC#N)N(C(C)C)C(C)C)SCC32)cc1 (centres undefined)" readout=TGI inequality_operator== recorded_measurement=35.7
compound=Cc1cnc2n1S(=O)(=O)c1cc(C(=O)Nc3cccc4nsnc34)c(Cl)cc1S2 readout=TGI inequality_operator== recorded_measurement=40
compound=CC(=O)O[C@@H]1C[C@]2(C(=O)c3ccccc3)C(=O)C(=O)S[C@]12c1ccccc1 readout=TGI inequality_operator=> recorded_measurement=100
compound=CCOC(=O)Cc1c(C)c2cc(C(=O)c3ccccc3)c(O)cc2oc1=O readout=TGI inequality_operator=> recorded_measurement=100
compound="C=CCNC(=O)NCCCCC(NC(C)=O)C(=O)NCc1ccccc1 (centres undefined)" readout=TGI inequality_operator=> recorded_measurement=100
compound=N#C/C(=C\c1ccc(F)cc1)c1nc(-c2cc3ccccc3oc2=O)cs1 readout=TGI inequality_operator== recorded_measurement=38.3
compound=COc1cccc2c1c1ccc3c(c1n2C)C(=O)C=CC3=O readout=TGI inequality_operator== recorded_measurement=33.3
compound=C[C@@H]1C[C@H]2[C@@H]3CCC4=CC(=O)C=C[C@]4(C)[C@@]3(F)[C@@H](O)C[C@]2(C)[C@@]1(O)C(=O)CO readout=TGI inequality_operator=> recorded_measurement=100
compound=Cc1ccc(O)c(C(c2cccc(C(c3cc(C)ccc3O)c3cc(C)ccc3O)c2)c2cc(C)ccc2O)c1 readout=TGI inequality_operator== recorded_measurement=3.25
compound="CC(=O)O[C@@H]1C2CCC3C(CC[C@@]4(C)C3CC[C@@H]4C(C)N(C)C)[C@@]2(C)CC[C@@H]1NC(=O)C=C(C)C (some centres undefined)" readout=TGI inequality_operator== recorded_measurement=17.4
compound=CC(=O)Nc1ccc2c(c1)/C(=C\c1ccc([N+](C)(C)C)cc1)c1ccccc1-2 readout=TGI inequality_operator=> recorded_measurement=100
compound=CCOC(=O)c1cc(C(=O)c2ccc(OC)cc2)n2ccc(/C=C/c3cc[n+](CC(=O)c4ccc(OC)cc4)cc3)cc12 readout=TGI inequality_operator== recorded_measurement=5.76
compound=CCn1cc2c(=O)n3ncn(-c4ccc(Br)cc4)c3nc2n1 readout=TGI inequality_operator=> recorded_measurement=100
compound=O=c1c2c(nc3n1CCS3)[nH]c1cc([N+](=O)[O-])ccc12 readout=TGI inequality_operator=> recorded_measurement=100
compound=CC(C)C[C@H](NC(=O)CNC(=O)c1cc(Cl)ccc1Cl)B(O)O readout=TGI inequality_operator== recorded_measurement=0.0517
compound=O=C1N[C@@H]2[C@@H](O)[C@@H](O)[C@H](O)C[C@H]2c2cc3c(c(O)c21)OCCO3 readout=TGI inequality_operator== recorded_measurement=5.09
compound="CN(CCS(=O)(=O)N1C(=O)C2CCCN2C(=O)[C@@H]1Cc1ccccc1)C(=O)OCc1ccccc1 (some centres undefined)" readout=TGI inequality_operator=> recorded_measurement=100
compound="Cc1ccc([N+](=O)[O-])cc1S(=O)(=O)Nc1ccc(C2=NN(S(=O)(=O)c3cc([N+](=O)[O-])ccc3C)C(c3ccccc3)C2)cc1 (centres undefined)" readout=TGI inequality_operator=> recorded_measurement=100
compound=COc1ccc2c(c1)C(=O)c1c-2n(CCCN(C)C)c(=O)c2ccccc12 readout=TGI inequality_operator== recorded_measurement=9.32
